Test system: P. aeruginosa K34-7 (VIM-2)
protocol.description: Microbroth dilution MIC of carbapenem with/without inhibitor
Assay type: cell-based
details: inhibitor 63 mg/L
Parameter: Meropenem activity in presence of inhibitor. Scope: all listed entries.
The reply should be a number in mg/L, with the unit left off.

Known Meropenem activity in presence of inhibitor results, listed for orientation:
molecule: O=C(CN(CCN(Cc1ccccn1)Cc1ccccn1)Cc1ccccn1)Nc1ccc(CCNC(=O)c2cnccn2)cc1
target.or.test.system: P. aeruginosa K34-7 (VIM-2)
value.measured: 1
//
molecule: CC(=O)OC[C@H]1OC(OC(C)=O)[C@H](NC(=O)Cc2ccc(NC(=O)CN(CCN(Cc3ccccn3)Cc3ccccn3)Cc3ccccn3)cc2)[C@@H](OC(C)=O)[C@@H]1OC(C)=O (some centres unmarked) [Example 22a]
target.or.test.system: P. aeruginosa K34-7 (VIM-2)
value.measured: 1
//
molecule: C[C@H](CS)C(=O)N1CCC[C@H]1C(=O)O [Captopril, reference compound]
target.or.test.system: P. aeruginosa K34-7 (VIM-2)
value.measured: 32

Now look at this one.
Quick check: Meropenem activity in presence of inhibitor on P. aeruginosa K34-7 (VIM-2), item c1ccc(CN(CCN(Cc2ccccn2)Cc2ccccn2)Cc2ccccn2)nc1 [TPEN, reference compound] ? 1
